Molecular target: T1, human galectin-10-His (recombinant human galectin-10 with TEV-cleavable N-terminal His-tag) (human)
T1 construct: SEC-MALLS: dimer in solution; also called Gal10-His; humanGal10-His
T1 chain: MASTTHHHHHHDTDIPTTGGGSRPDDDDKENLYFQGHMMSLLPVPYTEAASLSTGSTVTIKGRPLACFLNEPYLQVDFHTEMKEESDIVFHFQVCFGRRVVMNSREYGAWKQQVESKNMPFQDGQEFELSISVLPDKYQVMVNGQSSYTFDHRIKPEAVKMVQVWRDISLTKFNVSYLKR
Assay: BLI tandem on galectin-10-His; competitor: saturating 6F06 mIgG1 (10 ug/mL)
Consider the following binders and their measured binding signal (nm) readings.

Examples with their reported binding signal (nm) follow.
6B06 mouse IgG1 (antibody, V domains shown, also called 6B06 mIgG1) VH: QVQRQESGPGLVKPSQTLSLTCTVSGGSITTNYYSWSWIRQPPGKGLEWIGYIAYSGSTSYSPSLKSRTSISRDTSNNQFSLQLSSVTPEDTAVYYCARSRSSPTTFGMDYWGKGTLVTVSS VL: SSALTQPSAVSVSLGQTARITCQGGNFGRYYVSWYTQKPGQAPVLVIYQDSERPTGIPERFSGSSSGDTATLTISGAQAEDEADYYCQSGTSSDNIVFGGGTHLTVL: 0.05 nm
6E10 mouse IgG1 (antibody, V domains shown, also called 6E010; 6E10 mIgG1) VH: QLQLVESGGGLVQPGGSLRLSCAASGFTFSSYWMYWVRQAPGKGLEWVSAINTGGGSTYYADSVKGRFTISRDNAKNTLYLQMNSLKPEDTALYYCARAGSGVAGTGYDYWGQGTQVTVSS VL: QPVLNQPSAVSVSLGQTARITCQGGNFGYYYVSWYQQKPGQAPVLVIYRDSGRPSGIPERFSGSSSGDTATLTISGAQAEDEADYYCQSGSSSDNAVFGGGTHLTVL: 0.07 nm

Let us examine a further case.
Q) Give the reported value of binding signal (nm) for this record: 2C07 mouse IgG1 (antibody, V domains shown, VH on mouse IgG1 heavy chain constant domains (CH1-CH2-CH3), VL on mouse lambda light chain constant domain; also called 2C07 mIgG1) VH: ELQLVESGGGLVQPGGSLRLSCAASGFTFSSYAMSWVRQAPGKGLEWVSNINSGGGSTGYADSVKGRFTISRDNAKNTLYLQMNSLKPEDMAVYYCAKYLRTYYPNAAFGMDYWGKGTLVTVSS VL: QAVLTQPSAVSVSLGQTARITCQGGNFGRYYASWYQQKPGQAPVLVIYRDSERPSGIPERFSGSSSGDTATLTISGAQAEDEADYYCQSGRSSDNAVFGGGTHLTGL
A) 0.04 nm
